- Tested on: K562
- ASSAY NAME: Antitumor activity against human K562 cells after 72 hrs by Calcein AM assay
- Format: functional, cell-based
- DETAILS: K562, 72 h
pIC50: −log10 of the molar value.
Each record here notes measured pIC50.
ASSAY METRIC: pIC50

TEST SMILES	EXPERIMENTAL SYSTEM	ASSAY METRIC	INEQUALITY SYMBOL	TEST VALUE
OC[C@H]1O[C@@H](n2cnc3c(NCc4ccccc4F)ncnc32)[C@H](O)[C@@H]1O	K562	pIC50	=	4.48
OC[C@H]1O[C@@H](n2cnc3c(NCc4ccc(F)cc4)ncnc32)[C@H](O)[C@@H]1O	K562	pIC50	=	5.57
OC[C@H]1O[C@@H](n2cnc3c(NCc4ccc(F)c(F)c4F)ncnc32)[C@H](O)[C@@H]1O	K562	pIC50	<	3.78
